Just for reference, paper PMC1184061 is where these values come from.

# binding signal per entry
# Target Or Test System: zif268 DBD R18Q/E21N (QN) (UniProt P08046 331-420, R349Q;E352N)
# Test Summary: competition EMSA (QuMFRA); 30 mM Tris-HCl pH 8.0, 50 mM NaCl, 0.1 mg/ml BSA, 3 mM DTT, 20 uM ZnSO4, 5 ug/ml poly(dI-dC), 1 h on ice; 10% polyacrylamide gel

(Q) Field request: binding signal | item: Zif_4 (AG) (dsDNA) DNA 1: TCGAGGTCGACGGTATCGCGTGGGAGCTCCACTAGTTCTAGAGCGGCCGCCAC DNA 2: GTGGCGGCCGCTCTAGAACTAGTGGAGCTCCCACGCGATACCGTCGACCTCGA
(A) 4.45 Ka relative to CG

Here's the next entry for you.
(Q) Field request: binding signal | item: Zif_5 (AA) (dsDNA) DNA 1: TCGAGGTCGACGGTATCGCGTGGGAACTCCACTAGTTCTAGAGCGGCCGCCAC DNA 2: GTGGCGGCCGCTCTAGAACTAGTGGAGTTCCCACGCGATACCGTCGACCTCGA
(A) 2.47 Ka relative to CG
